# Tested on: Acinetobacter baumannii
# PROTOCOL SUMMARY: Antimicrobial activity against ISAba1 linked with the blaOXA-51-type beta-lactamase harboring Acinetobacter baumannii zeta clonal group isolate 25 expressing ampC, ompA, adeB, adeM, aadA1, aacA4, aacC2, blaSHV-5 by Etest method
# Format: functional

>  <COMPOUND>
NCC[C@H](O)C(=O)N[C@@H]1C[C@H](N)[C@@H](O[C@H]2O[C@H](CN)[C@@H](O)[C@H](O)[C@H]2O)[C@H](O)[C@H]1O[C@H]1O[C@H](CO)[C@@H](O)[C@H](N)[C@H]1O

>  <SYSTEM NAME>
Acinetobacter baumannii

>  <RELATION OPERATOR>
=

>  <MIC / µg/mL>
32

$$$$
>  <COMPOUND>
C[C@@H](O)[C@H]1C(=O)N2C(C(=O)O)=C(S[C@@H]3CN[C@H](C(=O)N(C)C)C3)[C@H](C)[C@H]12

>  <SYSTEM NAME>
Acinetobacter baumannii

>  <RELATION OPERATOR>
>

>  <MIC / µg/mL>
2

$$$$
>  <COMPOUND>
CC(C)(O/N=C(\C(=O)N[C@@H]1C(=O)N2C(C(=O)[O-])=C(C[n+]3ccccc3)CS[C@H]12)c1csc(N)n1)C(=O)O

>  <SYSTEM NAME>
Acinetobacter baumannii

>  <RELATION OPERATOR>
>

>  <MIC / µg/mL>
256

$$$$
>  <COMPOUND>
C[C@@H](O)[C@H]1C(=O)N2C(C(=O)O)=C(SCCNC=N)C[C@H]12 [IMIPENEM ANHYDROUS]

>  <SYSTEM NAME>
Acinetobacter baumannii

>  <RELATION OPERATOR>
>

>  <MIC / µg/mL>
1.5

$$$$
>  <COMPOUND>
C[C@H]1COc2c(N3CCN(C)CC3)c(F)cc3c(=O)c(C(=O)O)cn1c23.C[C@H]1COc2c(N3CCN(C)CC3)c(F)cc3c(=O)c(C(=O)O)cn1c23.O

>  <SYSTEM NAME>
Acinetobacter baumannii

>  <RELATION OPERATOR>
=

>  <MIC / µg/mL>
16

$$$$
>  <COMPOUND>
CN(C)c1cc(NC(=O)CNC(C)(C)C)c(O)c2c1C[C@H]1C[C@H]3[C@H](N(C)C)C(O)=C(C(N)=O)C(=O)[C@@]3(O)C(O)=C1C2=O

>  <SYSTEM NAME>
Acinetobacter baumannii

>  <RELATION OPERATOR>
=

>  <MIC / µg/mL>
1

$$$$
